Experimental Target: Follistatin (Homo sapiens) (UniProt P19883)
Sequence (P19883 whole entry, looked up): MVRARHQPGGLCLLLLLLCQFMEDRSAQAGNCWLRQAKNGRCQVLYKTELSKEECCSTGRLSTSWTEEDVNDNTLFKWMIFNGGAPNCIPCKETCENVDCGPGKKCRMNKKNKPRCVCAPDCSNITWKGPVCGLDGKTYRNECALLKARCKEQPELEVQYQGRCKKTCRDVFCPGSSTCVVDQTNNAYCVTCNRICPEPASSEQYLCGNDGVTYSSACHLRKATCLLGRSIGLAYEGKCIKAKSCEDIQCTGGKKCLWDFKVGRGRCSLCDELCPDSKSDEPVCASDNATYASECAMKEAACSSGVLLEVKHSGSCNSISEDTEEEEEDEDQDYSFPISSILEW
Measurement Protocol: FST protein binding to printed compounds – biochemical, small-molecule microarray, 635/667 nm fluorescence, primary screen (AID 1132)
Conditions Used: 635 nm fluorescence, higher = more signal
Is composite z-score at least 1? Then Y. If not, N.

Determine whether this molecule has composite z-score no lower than 1: COc1ccc([Si](C)(C)[C@@H]2[C@@H](CC(=O)N(CCO)Cc3ccccc3)O[C@]3(C(=O)N(Cc4ccc(I)cc4)c4ccccc43)[C@H]2C)cc1
Y

Determine whether this molecule has composite z-score no lower than 1: C=CCOC(=O)[C@H]1[C@@H]2C(=O)O[C@@H](c3ccccc3)[C@@H](c3ccccc3)N2[C@@H](c2ccc(OCCOC(=O)[C@@H]3C[C@@H]4C(=O)N[C@@H](CCCCNC(C)=O)C(=O)N4[C@@H]3c3cccc(OCCO)c3)cc2)[C@]12C(=O)Nc1ccccc12
Y

Determine whether this molecule has composite z-score no lower than 1: COc1cc(C(O)C2C=CC3C(=O)N(c4ccccc4)C(=O)C3N2Nc2ccccc2)cc(OC)c1OC (stereo unspecified)
Y

###

Experimental Target: Epidermal growth factor receptor (Homo sapiens) (UniProt P00533)
Sequence (P00533 whole entry, looked up): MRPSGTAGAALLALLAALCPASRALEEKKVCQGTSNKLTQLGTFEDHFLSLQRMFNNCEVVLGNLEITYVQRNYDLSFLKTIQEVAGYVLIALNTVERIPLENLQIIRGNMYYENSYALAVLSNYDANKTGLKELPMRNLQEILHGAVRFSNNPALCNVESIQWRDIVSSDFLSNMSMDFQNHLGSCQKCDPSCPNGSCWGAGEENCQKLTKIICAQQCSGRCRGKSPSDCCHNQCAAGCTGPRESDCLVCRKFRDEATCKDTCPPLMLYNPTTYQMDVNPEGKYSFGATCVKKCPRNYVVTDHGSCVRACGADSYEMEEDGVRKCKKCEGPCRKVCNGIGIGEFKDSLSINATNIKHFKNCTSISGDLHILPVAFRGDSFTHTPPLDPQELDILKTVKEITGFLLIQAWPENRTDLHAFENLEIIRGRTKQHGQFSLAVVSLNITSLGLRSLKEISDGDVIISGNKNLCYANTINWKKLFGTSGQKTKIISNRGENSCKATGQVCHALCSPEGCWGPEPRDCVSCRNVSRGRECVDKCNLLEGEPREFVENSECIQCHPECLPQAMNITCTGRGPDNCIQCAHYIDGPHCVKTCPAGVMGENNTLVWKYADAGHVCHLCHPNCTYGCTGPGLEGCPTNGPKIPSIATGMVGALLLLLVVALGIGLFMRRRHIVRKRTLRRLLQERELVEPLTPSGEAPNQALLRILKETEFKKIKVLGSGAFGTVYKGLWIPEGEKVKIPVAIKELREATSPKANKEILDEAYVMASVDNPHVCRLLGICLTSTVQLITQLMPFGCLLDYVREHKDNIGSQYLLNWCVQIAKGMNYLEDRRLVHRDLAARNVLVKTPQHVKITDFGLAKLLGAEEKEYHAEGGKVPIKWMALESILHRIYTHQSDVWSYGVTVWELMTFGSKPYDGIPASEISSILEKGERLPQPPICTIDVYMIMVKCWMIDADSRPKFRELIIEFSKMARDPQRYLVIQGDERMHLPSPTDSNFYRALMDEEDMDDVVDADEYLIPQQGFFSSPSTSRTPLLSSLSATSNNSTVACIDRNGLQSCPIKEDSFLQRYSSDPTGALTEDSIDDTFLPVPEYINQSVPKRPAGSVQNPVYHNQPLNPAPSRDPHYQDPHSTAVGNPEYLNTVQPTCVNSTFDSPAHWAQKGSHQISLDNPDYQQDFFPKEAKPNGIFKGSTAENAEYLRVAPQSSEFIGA
Measurement Protocol: compounds binding epidermal growth factor receptor – biochemical, small-molecule microarray, 635 nm fluorescence, primary screen (AID 1104);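 further: score merges 667 nm emission intensity with spot signal to noise over triplicate slides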
Conditions Used: EGFR binding, higher = more signal
Is composite z-score at least 0.3? Then yes. If not, no.

Record excerpt, results attached:
Determine whether this molecule has composite z-score no lower than 0.3: CC(C)NC(=O)[C@@H]1c2ccccc2C(=O)N(Cc2ccc(OC(F)(F)F)cc2)[C@H]1c1ccc(CO)cc1
no

Determine whether this molecule has composite z-score no lower than 0.3: C[N+](C)(C)CCCC[C@@H]1NC(=O)[C@H]2C[C@@H](C(=O)NCCCCCNC(=O)CS)[C@@H](c3cccc(OCCO)c3)N2C1=O
yes

Determine whether this molecule has composite z-score no lower than 0.3: COC(=O)C(CC#Cc1ccc2c(c1)[C@]1(C(=O)N2)[C@H](c2ccc(OCCO)cc2)N2[C@H](c3ccccc3)[C@H](c3ccccc3)OC(=O)[C@H]2[C@@H]1C(=O)N1CCCCCCC1)C(=O)OC
yes

Determine whether this molecule has composite z-score no lower than 0.3: CC(C)=CCCC(C)=CC(O)C1C=CC2C(=O)NC(=O)C2N1Nc1ccc(Cl)cc1Cl (configuration not stated)
yes

Determine whether this molecule has composite z-score no lower than 0.3: CCCCN1CC=CC23O[C@@H]4/C=C\CCCOC(=O)C4[C@H]2C(=O)N(C(CO)C(C)C)[C@@H]3C1=O (some centres not stated)
no

More entries:
Determine whether this molecule has composite z-score no lower than 0.3: CCOC(=O)C[C@H]1[C@H](OC(=O)c2ccccc2-c2ccccc2)[C@@H](NC(=O)C2CCCCC2)c2cc(OCCCO)ccc2N1C(=O)c1ccc2ccccc2n1
no

Determine whether this molecule has composite z-score no lower than 0.3: CC[C@@H]1C=C(C(=O)O)[C@H](c2ccc(OC)cc2)N1S(=O)(=O)c1ccc(C)cc1
no

Determine whether this molecule has composite z-score no lower than 0.3: C=CC[C@@]1(C(=O)OC)N=C(c2ccc(OCCCO)cc2)O[C@@H]1c1ccccc1N=[N+]=[N-]
yes

Determine whether this molecule has composite z-score no lower than 0.3: COC(=O)[C@@]1(Cc2ccc(F)cc2)[C@H]2c3cc(C(=O)N4CCCC4)n(Cc4cc(F)cc5c4OCOC5)c3C[C@H]2CN1C(=O)c1ccccc1
no

Determine whether this molecule has composite z-score no lower than 0.3: COC(=O)[C@]1(CCC(=O)OC(C)(C)C)N=C(c2ccc(OCCCO)cc2)O[C@@H]1c1ccccc1N=[N+]=[N-]
no

Determine whether this molecule has composite z-score no lower than 0.3: CN1C(=O)[C@@H]2[C@@H](CC(COc3ccccc3)=C3[C@@H](CCc4ccccc4)OB(O)C[C@@H]32)C1=O
no

Determine whether this molecule has composite z-score no lower than 0.3: CN1C(=O)C2C(C3CC3)C=C3CN(Cc4cccc(Cl)c4)[C@@H]([C@@H](O)Cc4ccccc4)C3C2C1=O (some centres not stated)
yes

Data origin, for the record: PubChem BioAssay
